test system: UACC-62; experiment: NCI tumour cell line growth inhibition, 48 h
The source made the active and inactive calls. No stated cut-off is given here; in the data, active = GI50 up to about 1.1 µM and inactive = higher.
MEASUREMENT_LABEL: GI50

[[record]]
molecule = "CCOC(=O)C1=C(C)N(Cc2ccccc2)C(=O)C1CC#N (configuration not stated)"
target_under_test = "UACC-62"
measurement_label = "GI50"
result_value = "80 µM (inactive)"

[[record]]
molecule = "CCCCCCCCCCCCCP(=O)(NCC(N)=O)OCC (configuration not stated)"
target_under_test = "UACC-62"
measurement_label = "GI50"
result_value = "16.3 µM (inactive)"

[[record]]
molecule = "CC(C)/C(Cl)=N\\OC(=O)Nc1cccc(Cl)c1"
target_under_test = "UACC-62"
measurement_label = "GI50"
result_value = "20.2 µM (inactive)"

[[record]]
molecule = "CCOC(=O)c1nc2cc(C(F)(F)F)ccc2nc1Nc1ccc(F)cc1"
target_under_test = "UACC-62"
measurement_label = "GI50"
result_value = "25.5 µM (inactive)"

[[record]]
molecule = "NC(=O)c1ccc[n+](C2=C([N-]S(=O)(=O)c3ccccc3)C(=O)c3ccccc3C2=O)c1"
target_under_test = "UACC-62"
measurement_label = "GI50"
result_value = "17.9 µM (inactive)"

[[record]]
molecule = "CN1CCN(c2ccc3c(c2)NCC(=O)N3)CC1"
target_under_test = "UACC-62"
measurement_label = "GI50"
result_value = "> 100 µM (inactive)"

[[record]]
molecule = "COCC(C)(C)/N=C/N1Cc2cc3ccccc3nc2C1"
target_under_test = "UACC-62"
measurement_label = "GI50"
result_value = "> 100 µM (inactive)"


---

system: SK-MEL-28; experiment: NCI tumour cell line growth inhibition, 48 h
Active and inactive are the calls of the source. Rule as the data show it: active = GI50 up to about 1.1 µM and inactive = higher.
MEASUREMENT_LABEL: GI50

[[record]]
compound = "O=C1OC[C@@H]2Cc3c([nH]c4ccccc34)[C@@H](c3cc(O)c(O)c(O)c3)N12"
measurement_label = "GI50"
result_value = "17.3 µM (inactive)"

[[record]]
compound = "COc1ccc(/C=N/N=C(\\N)NO)c(OC)c1OC"
measurement_label = "GI50"
result_value = "> 100 µM (inactive)"

[[record]]
compound = "Cc1ccccc1C(=O)N/N=C/c1ccc(Sc2nccn2C)c([N+](=O)[O-])c1"
measurement_label = "GI50"
result_value = "> 100 µM (inactive)"

[[record]]
compound = "CC1CC[C@@]2(OC1)OC1C[C@H]3[C@@H]4CC[C@H]5CC(OC6OC(CO)C(OC7OC(CO)C(O)C(O)C7O)C(O)C6O)CCC5(C)[C@H]4CCC3(C)C1[C@@H]2C (some centres undefined)"
measurement_label = "GI50"
result_value = "9.2 µM (inactive)"


---

test system: SK-MEL-5; experiment: NCI tumour cell line growth inhibition, 48 h
Calls of active or inactive are those of the source. Cut-off read from the data, not from the text of the source: active = GI50 up to about 1.1 µM and inactive = higher.
MEASUREMENT_LABEL: GI50

[[record]]
compound = "C=C1C(=O)O[C@H]2C/C(C=O)=C\\[C@H]3O[C@H]3/C(COC(=O)C(C)C)=C/CC12 (stereo partly specified)"
measurement_label = "GI50"
result_value = "9.42 µM (inactive)"

[[record]]
compound = "CC(=O)OCC1OC(n2cc(F)c(=O)[nH]c2=O)C(OC(C)=O)C1OC(C)=O (stereo unspecified)"
measurement_label = "GI50"
result_value = "56 µM (inactive)"

[[record]]
compound = "CC(=O)N(C(C)=O)c1c(N)n(C)c(=O)[nH]c1=O"
measurement_label = "GI50"
result_value = "> 100 µM (inactive)"

[[record]]
compound = "CC(C)c1cccc(C(C)C)c1NC(=O)CCC(=O)NN"
measurement_label = "GI50"
result_value = "> 100 µM (inactive)"

[[record]]
compound = "CCN(CC)C(=O)CCN1CC1"
measurement_label = "GI50"
result_value = "> 10 µM (inactive)"

[[record]]
compound = "COc1cc(Nc2n[nH]c(NS(=O)(=O)c3cc(C)c(Cl)cc3S)n2)cc(OC)c1OC"
measurement_label = "GI50"
result_value = "> 100 µM (inactive)"

[[record]]
compound = "Nc1ccccc1[S+]([O-])c1ccccc1 (stereo unspecified)"
measurement_label = "GI50"
result_value = "> 100 µM (inactive)"

[[record]]
compound = "COc1ccc(/C=N/N=C(\\N)NO)c(OC)c1OC"
measurement_label = "GI50"
result_value = "24.6 µM (inactive)"

[[record]]
compound = "CCCCOC(=O)/C(CC(=O)C=C(C)C)=N\\NS(=O)(=O)c1ccc(C)cc1"
measurement_label = "GI50"
result_value = "> 100 µM (inactive)"

[[record]]
compound = "Nc1nc(N)c2ncn(CC(CO)CC(c3ccccc3)P(=O)(O)O)c2n1 (stereo unspecified)"
measurement_label = "GI50"
result_value = "> 100 µM (inactive)"

[[record]]
compound = "Cn1c2c(c3ccccc31)CCN(CCCCN1CCN(c3ccccc3)CC1)C2=O"
measurement_label = "GI50"
result_value = "5.69 µM (inactive)"


Where these numbers come from: ChEMBL document CHEMBL1201862
